test system: Candida albicans Y-6359; format: cell-based; details: Y-6359, 24 h
Bridge positions count the residues as written; N and C are the ends. Square brackets hold non-standard residues; d marks the D form. Peptide text beside a SMILES is read from it. Orn = NCCC[C@H](N)C(=O)O
readout.label: MIC against Candida albicans Y-6359 (µg/mL)
Give bare numbers, in µg/mL.

Some entries whose results are on file:
[[record]]
compound = "CSCC[C@@H]1NC(=O)[C@H](C(C)C)NC(=O)[C@H](C(C)C)NC(=O)[C@H](CC(C)C)NC(=O)[C@H](Cc2c[nH]c3ccccc23)NC(=O)[C@H](C(C)C)NC(=O)[C@@H](NC(=O)[C@H](Cc2c[nH]c3ccccc23)NC(=O)[C@@H](N)CCCNC(=N)N)CSSC[C@@H](C(=O)N[C@@H](CCCCN)C(=O)N[C@@H](CCCCN)C(N)=O)NC1=O [RP513] (H-RWCVWLVVMCKK-NH2; disulfide 3-10)"
readout_label = "MIC against Candida albicans Y-6359"
reading = 64

[[record]]
compound = "CC[C@H](C)[C@H](NC(=O)[C@H](CCCCN)NC(=O)[C@H](CC(C)C)NC(=O)[C@H](CCCN)NC(=O)[C@H](CC(C)C)NC(=O)[C@H](CCCNC(=N)N)NC(=O)[C@H](C)NC(=O)[C@H](CCCNC(=N)N)NC(=O)[C@@H](NC(=O)[C@H](CCCN)NC(=O)[C@H](Cc1ccccc1)NC(=O)[C@H](CCCNC(=N)N)NC(=O)[C@H](C)NC(=O)[C@H](CCCCN)NC(=O)[C@@H](NC(=O)[C@H](CCCN)NC(=O)[C@@H](N)Cc1ccccc1)[C@@H](C)CC)C(C)C)C(N)=O [RP553] (H-F[Orn]IKARF[Orn]VRARL[Orn]LKI-NH2)"
readout_label = "MIC against Candida albicans Y-6359"
reading = 64


Next compound, please.
Tell me measured MIC against Candida albicans Y-6359 for CC[C@H](C)[C@H](NC(=O)[C@H](CCCN)NC(=O)[C@H](C)NC(=O)[C@H](CCCN)NC(=O)[C@H](CC(C)C)NC(=O)[C@H](CCCCN)NC(=O)[C@@H](NC(=O)[C@H](CCCCN)NC(=O)[C@@H](NC(=O)[C@H](CCCN)NC(=O)[C@H](C)NC(=O)[C@H](CCCN)NC(=O)[C@H](CC(C)C)NC(=O)[C@H](CCCN)NC(=O)[C@@H](N)Cc1ccccc1)[C@@H](C)CC)C(C)C)C(=O)N[C@@H](CCCN)C(=O)N[C@@H](CC(C)C)C(N)=O [RP555] (H-F[Orn]L[Orn]A[Orn]IKVKL[Orn]A[Orn]I[Orn]L-NH2) please.
32
